meta.source: paper PMC12973313

Tested on: S. aureus ATCC 9144
Experiment: MIC assay
Type: cell-based, Staphylococcus aureus
Conditions: Staphylococcus aureus, ATCC9144, 15 h, total molecular concentration; after 900 min; read-out: MIC ATCC 9144
Description: Next generation SSAs 3, 5, 7, and 9 were specifically designed to increase the activity of SSAs against both drug susceptible and resistant S. aureus and ovarian cancer cells. […] These strains include: (i) USA300, a common clinically relevant, methicillin resistant strain;[47] […] Section S3: Biological methods […] Preparation of bacterial plates : Sterile TSB agar plates were streaked using the desired […]
Recorded MIC values for a group of molecules are listed next.
experimentalReadout: MIC (µM)

>>> print(df.to_string())
                                   molecule         testedsystem  experimentalreadout  unitabbreviation  measuredvalue
0  O=C(Nc1ccc(C(F)(F)F)cc1)N[C@H](Cc1ccccc1)C(=O)O  S. aureus ATCC 9144                  MIC                µM            174
1          O=C(O)CNC(=O)Nc1ccc(C(F)(F)F)cc1  S. aureus ATCC 9144                  MIC                µM           1390
2  CC(C)CC(NC(=O)Nc1ccc(C(F)(F)F)cc1)C(=O)O (stereo not shown)  S. aureus ATCC 9144                  MIC                µM             87
3  O=C(Nc1ccc(C(F)(F)F)cc1)N[C@@H](Cc1ccccc1)C(=O)O  S. aureus ATCC 9144                  MIC                µM             87
